Data provenance: a melting point compilation (Tetko et al.; mined from patent text by program, amines drawn as free bases though some values may be those of a salt)

List of melting point values.
measured_property: melting point

| molecule | test_value |
| --- | --- |
| CCCCN(CCCC)C(=O)NCCc1ccc(-c2csc(N)n2)cc1 | 42 to 43 °C |
| CCOC(=O)c1cc(Cl)n2c(C)nnc2n1 | 108 to 110 °C |
| Nc1nc(C(F)(F)F)cc(=O)n1N | 215 to 218 °C |
| Fc1ccc(C2NCCc3c2[nH]c2ccccc32)cc1F (stereo unspecified) | 151 °C |
| O=c1[nH]c2ccc3ccccc3c2n(CCc2ccccc2)c1=O | 268 °C |
| CC(C)(O/N=C(\C(=O)Sc1nc2ccccc2s1)c1csc(N)n1)C(=O)OC(c1ccccc1)c1ccccc1 | 110 °C |
| CS(=O)(=O)c1ccccc1NC(=O)c1ccccc1O | 142 to 145 °C |
| Clc1cccc(C(c2ccccc2)(c2ccccc2)n2ccnc2)c1 | 101 °C |
| O=C(O)[C@H](Cc1ccc(C(F)(F)F)cc1)[C@@H](O)c1ccoc1 (racemic) | 104 to 105 °C |
| O=C(CSc1nc[nH]n1)NC/C=C\COc1cc(CN2CCCCC2)ccn1 | 65 to 67 °C |
| NC(=S)c1c(Cl)cncc1Cl | 186 to 187 °C |

====

List of melting point values.
measured_property: melting point

| molecule | measured_property | test_value |
| --- | --- | --- |
| CCCN(CCCN1CCN(c2cccc(Cl)c2Cl)CC1)C1CCc2ncsc2C1 (stereo not given) | melting point | 110 °C |
| COc1ccc(S(=O)(=O)O)cc1OC(=O)c1ccccc1 | melting point | 139 to 140 °C |
| COc1cc(SC(F)F)nc(N)n1 | melting point | 83 to 84 °C |
| CC(C)[C@]1(CCc2ccc(O)cc2)CC(O)=C(Sc2cc(C(C)(C)C)cc3sc(N)nc23)C(=O)O1 | melting point | 168 to 179 °C |
| Cc1cccc(C)c1N1CCCCS/C1=N/N=C\c1ccc(-c2ncn(-c3ccc(OC(F)(F)F)cc3)n2)cc1 | melting point | 100 to 106 °C |
| O=C(Nc1ccc2ccc(Cl)nc2n1)C1=CSCCO1 | melting point | 270 °C |
| Cc1nc(C)c(Cl)c(NCc2nccc(N(C)CCCSCCn3c([N+](=O)[O-])cnc3C)c2Cl)n1 | melting point | 123 to 126 °C |
| O=C(Nc1ccc2cc(CN3CCCCC3)ccc2c1)N1CCC(c2ccc(Cl)cc2)CC1 | melting point | 231 to 232 °C |
| O=C(Cl)c1cc2n(c1)CCc1ccccc1C2=O | melting point | 147 °C |
| Cc1ccccc1-c1noc2c3c(c(Cl)cc12)OC(C(=O)O)C3 (stereo not given) | melting point | 192 to 195 °C |

====

List of melting point values.

| molecule | melting point |
| --- | --- |
| Cc1oc(-c2ccccc2)nc1COc1ccc(Cn2cc(C=O)c(-c3ccccc3)c2)cc1 | 117 to 118 °C |
| Nc1ccc(C=Cc2ccc3ccccc3n2)cc1 | 178 to 180 °C |
| CCOC(=O)COc1cc(F)c(-c2nn(C)c(C(F)(F)F)c2Cl)cc1[N+](=O)[O-] | 95 to 96 °C |
| CC(C)c1cc2n(Cc3ccccc3)cc(C(=O)O)c(=O)n2n1 | 180 to 185 °C |
| CSc1ncc(C)c(=O)[nH]1 | 238 to 239 °C |
| O=C(O)C1=C(CCl)CS[C@@H]2[C@H](NC(=S)Cc3cc(Cl)ccc3Cl)C(=O)N12 | 125 °C |
| CCC(=O)NCC1CC1c1cccc2nnsc12 (stereo not given) | 67 to 69 °C |
| CC(C)N(CCOc1ccc(NC(=O)c2c[nH]c3c2C(=O)CCC3)cc1)C(C)C | 140 to 141 °C |
| O=C(CS(=O)(=O)Cc1cccs1)C12CC3CC(CC(C3)C1)C2 | 95.5 to 98 °C |
| C[Si](C)(C)c1ccc(-c2nccc3ccccc23)cc1 | 93.5 °C |
